# System: 485176-168-R4-J1-PDC complex spheroid growth;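 further: spheroids exposed to compounds for seven days before readout; luminescence viability expressed relative to DMSO vehicle wells set as 100%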
# protocol_details: Anticancer human tumor 485176-168-R4-J1-PDC patient-derived pancreatic adenocarcinoma cell line growth inhibition [RAS]
# condition: second compound 0.0949 µM; first compound 0.316 µM; hits give low values
viability, T/C values, listed per item

compound: CC(Nc1ccc2c(c1)OCCn1cc(N3C(=O)OCC3C(F)F)nc1-2)C(N)=O (centres undefined) + CCn1c(-c2cccnc2C(C)OC)c2c3cc(ccc31)N1CCOC(CC(NC(=O)C(C(C)C)N(C)C(=O)C3(F)CCN(C(=O)C#CC(C)(C)N(C)C)CC3)C(=O)N3CCCC(N3)C(=O)OCC(C)(C)C2)C1
viability, T/C / %: 75.8

compound: Cc1nc(N2CCC3(CC2)COC(C)C3N)c(CO)nc1Sc1ccnc(N)c1Cl (centres undefined) + CCn1c(-c2cccnc2C(C)OC)c2c3cc(ccc31)N1CCOC(CC(NC(=O)C(C(C)C)N(C)C(=O)C3(F)CCN(C(=O)C#CC(C)(C)N(C)C)CC3)C(=O)N3CCCC(N3)C(=O)OCC(C)(C)C2)C1
viability, T/C / %: 72.3

compound: CC1(O)CCCC1n1c(=O)c(C(F)F)cc2cnc(NC3CCN(S(C)(=O)=O)CC3)nc21 (centres undefined) + CCn1c(-c2cc(N3CCN(C)CC3)cnc2C(C)OC)c2c3cc(ccc31)-c1csc(n1)CC(NC(=O)C1CC1C)C(=O)N1CCCC(N1)C(=O)OCC(C)(C)C2
viability, T/C / %: 51.3

compound: CCC(CC)c1cc(NC2CCC(N)C2)n2nccc2n1 (centres undefined) + CCn1c(-c2cc(N3CCN(C)CC3)cnc2C(C)OC)c2c3cc(ccc31)-c1csc(n1)CC(NC(=O)C1CC1C)C(=O)N1CCCC(N1)C(=O)OCC(C)(C)C2
viability, T/C / %: 68.5
